Observable: melting point

C#Cc1cc(C(=O)NC(C)CCCc2cccnc2)ccc1-c1ccc(OC)c(OC)c1 (stereo not given) ... 135 to 137 °C
COc1cc(-c2nc3ccc(OCCN4CCCCC4)cc3n2Cc2ccccc2Br)cc(OC)c1OC ... 145 °C
COc1nc(C)c(C(C)=O)cc1NC(=O)N1CCN(c2cc(C)cc(C)c2)CC1 ... 66 to 69 °C
Fc1ccc(C(F)(F)F)cc1Nc1nc2ccccc2o1 ... 164 to 165 °C
CC(C)n1c(/C=C/[C@H]2C[C@H](CC(=O)OC(C)(C)C)OC(C)(C)O2)c(-c2ccc(F)cc2)c(-c2ccccc2)c1C(N)=O ... 73 to 75 °C

query: Look up melting point for this compound: `CC(C)(C)OC(=O)N(CC(=O)O)Cc1ccccc1`
result: 94 to 97 °C

query: Look up melting point for this compound: `Cc1ccc(OCc2ccccc2)c2[nH]c(CCc3ccccc3)nc12`
result: 203 to 204 °C

query: Look up melting point for this compound: `c1ccc2c(c1)Sc1ccccc1N2c1ccc(-n2ccnc2-c2nccn2-c2ccc(N3c4ccccc4Sc4ccccc43)cc2)cc1`
result: 227 to 232 °C

query: Look up melting point for this compound: `CCCCc1ncc(/C=C2\C(=O)NC(=O)N2Cc2cccs2)n1Cc1ccc(C(=O)O)cc1`
result: 297 to 299 °C

meta.source: a melting point compilation (Tetko et al.; mined from patent text by program, amines drawn as free bases though some values may be those of a salt)
